Form field: IC50 (one value per entry).
measured-on: NOX2 (Homo sapiens)
Construct: endogenous in cells
Sequence (P04839 2-570 limits assumed): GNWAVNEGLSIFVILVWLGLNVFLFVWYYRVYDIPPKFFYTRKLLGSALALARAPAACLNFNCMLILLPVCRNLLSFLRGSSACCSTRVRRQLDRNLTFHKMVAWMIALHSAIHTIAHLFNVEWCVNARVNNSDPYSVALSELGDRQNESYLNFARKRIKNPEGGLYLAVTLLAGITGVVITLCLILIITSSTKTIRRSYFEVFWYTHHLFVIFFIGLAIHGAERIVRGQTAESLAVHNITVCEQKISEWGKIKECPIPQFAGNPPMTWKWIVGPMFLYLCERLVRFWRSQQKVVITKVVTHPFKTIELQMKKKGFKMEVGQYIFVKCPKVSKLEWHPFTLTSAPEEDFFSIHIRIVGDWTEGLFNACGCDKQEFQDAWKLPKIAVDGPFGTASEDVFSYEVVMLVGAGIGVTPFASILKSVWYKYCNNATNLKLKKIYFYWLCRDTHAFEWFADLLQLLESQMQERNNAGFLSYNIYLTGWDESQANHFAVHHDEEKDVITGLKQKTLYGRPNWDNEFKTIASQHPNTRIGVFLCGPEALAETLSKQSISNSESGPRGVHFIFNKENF
Sequence (P13498 2-195 partner limits assumed): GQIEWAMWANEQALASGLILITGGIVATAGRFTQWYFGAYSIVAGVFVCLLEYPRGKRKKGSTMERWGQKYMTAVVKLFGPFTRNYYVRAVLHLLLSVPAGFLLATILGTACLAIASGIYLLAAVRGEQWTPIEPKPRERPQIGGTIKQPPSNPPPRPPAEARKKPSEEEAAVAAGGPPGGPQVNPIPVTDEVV
experiment-description: NOX2 inhibition assay (L-012), human blood-derived granulocytes
condition-set: fMLP/PMA stimulated
property-label: IC50

1. O=c1c2scnc2nc(SCc2ccc(Br)cc2F)n1-c1cnc(O)c(F)c1 : > 100 µM
2. O=c1c2scnc2nc(SCc2c(F)cc(F)cc2F)n1-c1cnc(O)c(Cl)c1 : > 100 µM
3. O=c1c2scnc2nc(SCc2ccc(Cl)cc2Cl)n1-c1cnc(O)c(F)c1 : > 100 µM
4. N#Cc1cc(-n2c(SCc3c(F)cc(F)cc3F)nc3ncsc3c2=O)cnc1O : > 30 µM
5. Cc1cc(F)cc(C)c1CSc1nc2ncsc2c(=O)n1-c1cnc(O)c(F)c1 : > 100 µM
